target.or.system: human ether-à-go-go-related gene (hERG) potassium channel (human, UniProt Q12809);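 note: peak tail current of the secondary pulse compared with the same well before compound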
Sequence (Q12809 whole entry, looked up): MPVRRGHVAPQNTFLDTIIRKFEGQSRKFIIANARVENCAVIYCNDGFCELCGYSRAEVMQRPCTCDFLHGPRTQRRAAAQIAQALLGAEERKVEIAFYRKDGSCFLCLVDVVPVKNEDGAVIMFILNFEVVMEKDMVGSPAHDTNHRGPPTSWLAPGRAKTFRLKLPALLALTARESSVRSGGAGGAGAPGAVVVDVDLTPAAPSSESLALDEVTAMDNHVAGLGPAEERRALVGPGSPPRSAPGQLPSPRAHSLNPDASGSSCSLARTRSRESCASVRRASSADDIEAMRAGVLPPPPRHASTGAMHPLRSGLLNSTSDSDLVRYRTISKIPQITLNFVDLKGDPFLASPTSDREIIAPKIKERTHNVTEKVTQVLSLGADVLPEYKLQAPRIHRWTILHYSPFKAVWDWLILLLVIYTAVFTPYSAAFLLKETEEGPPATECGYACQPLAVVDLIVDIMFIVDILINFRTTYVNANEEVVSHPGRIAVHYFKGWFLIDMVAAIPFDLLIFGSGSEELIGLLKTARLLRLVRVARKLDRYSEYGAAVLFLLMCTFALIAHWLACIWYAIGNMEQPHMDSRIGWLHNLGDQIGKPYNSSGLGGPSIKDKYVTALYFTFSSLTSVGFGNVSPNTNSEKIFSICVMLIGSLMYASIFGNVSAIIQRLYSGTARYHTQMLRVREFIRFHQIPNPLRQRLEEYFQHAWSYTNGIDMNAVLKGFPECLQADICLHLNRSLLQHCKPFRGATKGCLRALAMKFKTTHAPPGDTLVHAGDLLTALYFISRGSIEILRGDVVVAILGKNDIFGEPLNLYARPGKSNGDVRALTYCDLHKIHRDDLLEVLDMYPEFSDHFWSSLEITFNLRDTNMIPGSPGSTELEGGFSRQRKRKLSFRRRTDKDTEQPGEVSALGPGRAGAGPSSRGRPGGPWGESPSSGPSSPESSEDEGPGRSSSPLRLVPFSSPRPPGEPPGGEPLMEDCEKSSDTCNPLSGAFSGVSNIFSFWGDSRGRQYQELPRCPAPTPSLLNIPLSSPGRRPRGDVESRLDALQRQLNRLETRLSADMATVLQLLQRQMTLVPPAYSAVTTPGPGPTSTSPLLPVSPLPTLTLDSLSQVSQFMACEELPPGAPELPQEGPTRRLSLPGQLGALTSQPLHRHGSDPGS
protocol: primary screen, population patch clamp on CHO cells stably expressing hERG; higher = less effect of the substance
About 14,000 (4.5%) of roughly 310,000 compounds showed an effect of 50% or more. Effects have a minus sign here. The list comes from a sample in which strong results are over-represented; it also holds close analogues and randomly drawn compounds.
The entries below are paired with their reported hERG current change (%, negative = inhibition) at 10uM.
measurement.kind: hERG current change (%, negative = inhibition) at 10uM (%)

* O=C(O)CN1C(=O)C2C3C=CC(C2C1=O)C1C(=O)N(CC(=O)O)C(=O)C31 (stereo not drawn) | 21.8
* CCNC(=S)N(CCc1cccc(C)c1)Cc1cc2cc(OC)c(OC)cc2[nH]c1=O | -22.4
* Cc1ccc2cc(CNC(C)(C)C)c(=O)[nH]c2c1 | -19
* COc1cccc(NC(=O)CN(C)C(=O)c2cc(C3CC3)nn2-c2ccccc2)c1 | -23.1
* COc1cc(NC(=O)c2ccc(C)cc2C)ccc1NC(=O)c1cc2ccccc2o1 | 6.61
* CCN(CC)S(=O)(=O)c1ccc(C(=O)NCC2(N3CCOCC3)CCCCC2)cc1 | -67.3
* O=C(Nc1ccc(S(=O)(=O)N2CCN(c3ccccc3)CC2)cc1)c1cccs1 | 8.53
* CCC(=O)N(CCc1ccc(OC)c(OC)c1)Cc1cc2ccc(C)cc2n2nnnc12 | -76.8
* CCNC(=S)N(CCc1ccc(OC)c(OC)c1)Cc1cc2cc(OC)ccc2[nH]c1=O | -56.9
* CCN(CC(=O)Nc1ccccc1OC)C(=O)c1ccc(N(C)S(=O)(=O)c2ccc(C)cc2)cc1 | -62.2
* CCCCN(C(=O)CN1C(=O)C2CC=CCC2C1=O)c1c(N)n(CCC)c(=O)[nH]c1=O (stereo not drawn) | 4.14
* CCOC(=O)c1c(C)[nH]c(C)c1S(=O)(=O)N(C)CC(=O)Nc1cc(C)ccc1OC | -24.7
* Cc1ccc(-n2c(C)cc(/C=C3\NC(=O)NC3=O)c2C)c(C)c1 | -5.9
* Cc1cccc(C)c1NC(=O)CCS(=O)(=O)c1cccc2nsnc12 | -4.59
* CNCc1cc2ccc(C)cc2[nH]c1=O | -33.1
* CCCN(CC(=O)Nc1ccccc1OC)C(=O)c1ccc(S(=O)(=O)Nc2ccccc2)cc1 | -53.4
* Cc1cccc(C)c1NC(=S)N(CCN(C)C)C(C)c1cccnc1 (stereo not drawn) | -9.34
* COc1ccccc1NC(=O)CN(Cc1ccco1)C(=O)c1ccc(Cl)nc1 | -28.4
* CCN(CC(=O)NC(C)C)C(=O)c1ccc(S(=O)(=O)N(C)c2ccccc2OC)cc1 | -2.53
* Cc1ccccc1NC(=S)N(CCN(C)C)C(C)c1cccnc1 (stereo not drawn) | -50.1
* N#Cc1cc([N+](=O)[O-])ccc1NCCc1ccccn1 | -18.4
* Cc1cccn2c(=O)c3cc(C(=O)NC4CCCCC4)c(=N)n(Cc4ccc(F)cc4)c3nc12 | -77.1
* COc1ccccc1NC(=O)CN(Cc1ccco1)C(=O)c1cncc(Br)c1 | -22.4
* O=C(O)C(=O)O.c1ccc(COc2ccc(OCCCCN3CCCC3)cc2)cc1 | -64
* COc1ccccc1NC(=O)CN(Cc1ccco1)C(=O)c1ccc(-n2nc(C)cc2C)cc1 | -51.2
* Cc1cccn2c(=O)c3cc(C(=O)NC4CCCCCC4)sc3nc12 | 9.51
* CCNC(=S)N(CCc1ccccc1C)Cc1cc2cc(OC)c(OC)cc2[nH]c1=O | -22.3
* COCCN(C(=S)Nc1cccc(C)c1)C(C)c1cccnc1 (stereo not drawn) | -4.61
* N#Cc1ccc(NCCc2ccccn2)c([N+](=O)[O-])c1 | -74
* COCn1ccnc1C(O)(c1ccc(OC)cc1)c1ccc(OC)cc1 | 9.69
* CCOC(=O)c1c(C)[nH]c(C)c1S(=O)(=O)N(C)CC(=O)Nc1ccccc1OC | -60
* COc1cc(/C=C/C(=O)OCC(=O)Nc2sc3c(c2C#N)CCC(C)C3)ccc1OCC#N (stereo not drawn) | 12.1
* Cc1cccn2c(=O)c3cc(C(=O)NC4CCS(=O)(=O)C4)n(Cc4ccccc4)c3nc12 (stereo not drawn) | -4.36
* O=[N+]([O-])c1cc(Cl)ccc1NCCc1ccccn1 | -16.8
* O=C(Nc1nccs1)c1cc2c(s1)CCCCC2 | 6.98
* Cc1cccn2c(=O)c3cc(C(=O)NC4CCCCC4)c(=N)n(Cc4ccccc4)c3nc12 | -74.6
* CCc1ccccc1NC(=S)N(CCN(C)C)C(C)c1cccnc1 (stereo not drawn) | -7.25
* O=C(COc1cccc2cccnc12)Nc1ccccc1N1CCOCC1 | -37.7
* CCC(=O)N(Cc1cc2ccc(C)cc2n2nnnc12)C1CCCCC1 | -32.3
